Value source: patent US20250250357A1

Biological target: T1, human MSLN-FL-his protein (human, UniProt Q13421 296-580)
T1 construct: made in HEK293E cells, purified on nickel column; also called hMSLN-FL-his; human MSLN full-length protein; not shown: His tag
T1 sequence (Q13421 other isoform, or with tags, fused parts or gaps): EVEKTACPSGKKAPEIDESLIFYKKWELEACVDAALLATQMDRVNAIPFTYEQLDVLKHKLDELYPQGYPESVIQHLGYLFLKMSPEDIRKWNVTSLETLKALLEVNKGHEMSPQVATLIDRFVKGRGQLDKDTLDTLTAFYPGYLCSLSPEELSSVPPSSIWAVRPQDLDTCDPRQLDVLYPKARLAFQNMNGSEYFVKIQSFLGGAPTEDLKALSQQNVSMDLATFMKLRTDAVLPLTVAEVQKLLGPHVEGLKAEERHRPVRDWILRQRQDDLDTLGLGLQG
Test: SPR (Biacore), antibody captured on Protein A chip;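 further: flow cell at 25 °C, antigen injected for 240 s at five concentrations from 200 nM downward, dissociation followed up to 600 s, double-referenced, fitted with Langmuir 1:1 model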
RESULT_TYPE: koff (s⁻¹)
Number in s⁻¹, nothing else.

Reference set, count: 4
1. S009-F8-19.21 (antibody, human IgG1, kappa, V domains shown, human-murine chimeric antibody, human IgG1/kappa constant regions) VH: EFQLQQSGPELVKPGASVKISCKTSGYSFTDYNMNWVKQSNGKSLEWIGVINPNYGTTGYNQKFKGKATLTVDQSSSTAYMQLNSLTSEDSAVYYCARGGYDGEAMDYWGHGTSVTVSS VL: QIVLTQSPAIMSASPGEKVTMTCSASSSVNYMHWYQQKSGTSPKRWIYDTSKLASGVPARFSGSGSGTSYSLTISSMEAEDAATYYCQQWSSYPPTFGGGTKLEIKR :: 0.00172
2. S009-F7.33.24 (antibody, human IgG1, kappa, V domains shown, human-murine chimeric antibody, human IgG1/kappa constant regions) VH: QVQLQQPGTELVKPGASVKLSCKASGYTFTSYWMHWVKQRPGQGLEWIGNVNPSNGGSNYNEKFKNKATLTVDKSSSTADMQLNSLTSEDSAVYYCAPHYIGSRPGFAYWGQGTLVTVSG VL: DIVMTQSQKFMSTSVGDRVSVTCKASQNVGTNIAWYQQKPGQSPKALIYSASYRYSGVPDRFTGSGSGTDFTLTITNVQSEDLAEYFCQQYNSYPLTFGGGTKVEIKR :: 0.00506
3. S009-F7.11.11 (antibody, human IgG1, kappa, V domains shown, human-murine chimeric antibody, human IgG1/kappa constant regions) VH: EVQLQQSGPELVKPGASVKIPCKASGYTITDYNMDWVKQSRGKSLEWIGDVFPYNGDSIYNQKFEGRATLTVDKYSSTAYMELRGLTSEDTAVYFCARRKTGTGYFDVWGTGTTVTVSS VL: QLVLTQSPAIMSASPGEKVTLTCSASSSVSSTYLSWYLQKPGSSPKLWIYSTSNLASGVPARFSGSGSGTSYSLTISSMEAEDAASYFCHQWSSYPYTFGGGTKLEIKR :: 0.00024
4. S009-F8-24.14 (antibody, human IgG1, kappa, V domains shown, human-murine chimeric antibody, human IgG1/kappa constant regions) VH: EFQLQQSGPELVKPGASVKISCKASGYSFTDYNMNWVKLSNGKSLEWIGVIIPNYGTSSYNQKFKGKATLTVDQSSSTAYMQLNSLTSEDSAVYYCARWDNYYGSSLDYWGQGTTLTVSS VL: DIVMTQSQKFMSTTVGDRVSITCKASQNVGTAVAWYQQKPGQSPKLLIYSASNRYTGVPDRFTGSGSGTDFILTISNMQSEDLADYFCQQYSSYPLTFGAGTKLELKR :: 0.00501

# input binder: S009-F8-31.22 (antibody, human IgG1, kappa, V domains shown, human-murine chimeric antibody, human IgG1/kappa constant regions) VH: EVQLVESGGDLVKPGGSLKLSCAASGFTFSTYGMSWVRQTPDKRLEWVATISSGGSYTYYPDSLKGRFTISRDNAKNTLYLQMSSLKSEDTAMYYCARHEGYYYGKDYWGQGTTLTVSS VL: DIVLTQSPATLSVTPGDSVSLSCRASHSISNNLHWYQQKSHESPRLLIKYASQSISGIPSKFSGSGSGTDFTLSINSVETEDFGMYFCQQTNSWPLTFGAGTKLELKR ; wanted: its koff
0.0276
